Numbers sourced from ChEMBL document CHEMBL3608281.

tested on: Detroit 551; test: Cytotoxicity against human Detroit 551 cells incubated for 48 hrs by MTT assay; assay type: cell-based; settings: Detroit 551, 48 h
pIC50: −log10 of the molar value.
measurement_kind: pIC50

The recorded pIC50 for entry "COc1ccccc1Cn1c2ccccc2c2cc(C(=O)O)ncc21" equals < 4.00

The recorded pIC50 for entry "O=C(O)c1cc2c3ccccc3nc-2c[nH]1" equals < 4.00

The recorded pIC50 for entry "CCOC(=O)c1cc2c(cn1)[nH]c1ccccc12" equals < 4.00

The recorded pIC50 for entry "CCOC(=O)c1cc2c3ccccc3n(Cc3cccnc3)c2cn1" equals < 4.00

The recorded pIC50 for entry "OCc1cc2c3ccccc3nc-2c[nH]1" equals < 4.00

The recorded pIC50 for entry "CCOC(=O)c1cc2c3ccccc3n(Cc3ccc(F)cc3)c2cn1" equals < 4.00

The recorded pIC50 for entry "CCOC(=O)c1cc2c3ccccc3n(Cc3cc(OC)cc(OC)c3)c2cn1" equals < 4.00
